System: MST4
Assay Setup: concentration: 1 μM, replicates: in singlicate; n = 1;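 also: KINOMEscan kinase panel screen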
Metric Name: %Inh
Please state the value followed by its unit.

# annotated cases, reported %Inh shown
Compound	%Inh
COc1cc(Nc2nccc(N3CCC(NS(=O)(=O)c4ccc(NC(C)=O)cc4)CC3)n2)cc(OC)c1OC [GSK1379825]	0%
CN(c1ccc2c(c1)nc(NCc1ccccc1)n2C)c1ccnc(Nc2ccc(CS(C)(=O)=O)cc2)n1.Cl [GW811603]	0%
O=C(O)C(F)(F)F.O=c1[nH]ccc2nc(N[C@@H]3CCNC3)nc(Nc3ccc4c(c3)S(=O)(=O)CC4)c12 [GSK2181306]	95.5%
Cl.Cl.NCC(NC(=O)c1cc(-c2cccnc2)c(-c2ccnc3[nH]ccc23)s1)c1ccccc1 (stereo not shown) [GSK1323434]	15%
O=C(O)C(F)(F)F.O=c1[nH]ccc2nc(N[C@@H]3CCNC3)nc(Nc3cc(Cl)cc(Cl)c3)c12 [GSK2188764]	91.1%

# %Inh (compound: `CS(=O)(=O)c1cccc(CNc2nc(Nc3ccc4c(c3)CCC(=O)N4)ncc2C(F)(F)F)c1` ) is 25%

# %Inh (compound: O=C(Nc1n[nH]c2nc(-c3cccc(O)c3)ccc12)C1CC1 [SB-711805] ) is 0%

# %Inh (compound: O=C(Nc1n[nH]c2nc(-c3ccccc3O)ccc12)C1CC1 [SB-711880] ) is 20%

# %Inh (compound: Cc1ccc(NC(=O)c2ccc(Cl)c(Cl)c2)cc1-c1ccc(C(=O)Nc2ccncc2)cc1 [GSK1398460] ) is 0%

# %Inh (compound: COc1cccc(CC(=O)N2CCc3cc(-c4cn(C)c5ncnc(N)c45)ccc32)c1 [GSK2608899] ) is 27%

====

System: RSK1(Kin.Dom.1-N-terminal)
Construct: gene RPS6KA1
Assay Setup: concentration: 1 μM, replicates: in singlicate; n = 1
# %Inh >= 5% gives 1, anything below gives -1

Solved cases below.
Compound	Qualitative Label
CN(c1ccc(NC(=O)Nc2cccc(Cl)c2)cc1)c1ccnc(N)n1.Cl	-1
Fc1cc(Cl)ccc1Nc1ccnc2cc(-c3ccc(CN4CCOCC4)o3)ccc12	1
COc1cc(Nc2nccc(N3CCC(NS(=O)(=O)c4ccc(NC(C)=O)cc4)CC3)n2)cc(OC)c1OC	-1
Cc1ccc(O)cc1Nc1ccnc2ccc(C(C)(C)C)cc12	1
N#Cc1cnc2cc(-c3cnc(CNCCN4CCOCC4)s3)ccc2c1Nc1ccc(Oc2ccccc2)cc1	1
Cn1cc(-c2ccc3c(c2)CCN3C(=O)Cc2cc(F)cc(C(F)(F)F)c2)c2c(N)ncnc21	-1
Cc1cc(-c2ccnc(Nc3cccc(C#N)c3)n2)cc(C)c1O	1
O=C(Nc1n[nH]c2cc(-c3cccs3)ccc12)C1CC1	1

(Q) Determine whether measured %Inh meets or exceeds 5% for Cl.Cl.NC(CNC(=O)c1cc(Br)c(-c2ccnc3[nH]ccc23)s1)c1ccccc1 (stereo not shown)
(A) 1

(Q) Determine whether measured %Inh meets or exceeds 5% for `Cl.N#CCc1ccc(Nc2nccc(Nc3ccc(Oc4ccccc4)cc3)n2)cc1`
(A) -1

(Q) Determine whether measured %Inh meets or exceeds 5% for `Nc1ncnc2scc(-c3ccc(NC(=O)Cc4cc(F)ccc4F)cc3)c12.O=C(O)C(F)(F)F`
(A) -1

(Q) Determine whether measured %Inh meets or exceeds 5% for `Cc1ccc(C)c(NC(=O)Nc2ccc(C)c(-c3ccc(C(=O)Nc4ccncc4)cc3)c2)c1`
(A) -1

(Q) Determine whether measured %Inh meets or exceeds 5% for `O=C(Nc1n[nH]c2nc(-c3ccccc3O)ccc12)C1CC1`
(A) -1

(Q) Determine whether measured %Inh meets or exceeds 5% for `Nc1ncc(-c2cn[nH]c2)c2scc(-c3ccc4c(c3)CCN4C(=O)Cc3ccccc3)c12`
(A) 1

(Q) Determine whether measured %Inh meets or exceeds 5% for `COc1cccc(C2=C(Nc3cccc(O)c3)C(=O)NC2=O)c1`
(A) 1

(Q) Determine whether measured %Inh meets or exceeds 5% for `O=C(Nc1n[nH]c2nc(-c3ccccc3)ccc12)C1CC1`
(A) -1

====

Reported %Inh by item:
System: CSNK2A2
Assay Setup: concentration: 1 μM, replicates: in singlicate; n = 1
Dear colleague, please return just the value in %, with no unit written.

# annotated cases, reported %Inh shown
Compound	Recorded Result
O=C1NC(=O)C(c2ccccc2Cl)=C1Nc1cccc(Cl)c1	0
COc1ccc(C2=C(Nc3cccc(O)c3)C(=O)NC2=O)cc1	19
O=C(O)C(F)(F)F.O=c1[nH]ccc2nc(N[C@@H]3CCNC3)nc(Nc3ccc4c(c3)S(=O)(=O)CC4)c12	99.9
Nc1ncc(-c2ccc3nccc(-c4ccncc4)c3c2)cc1S(=O)(=O)N1CCCCC1	0

# %Inh (compound: NCCC(NC(=O)c1cc(Br)c(-c2ccnc3[nH]ccc23)s1)c1ccccc1.O=C(O)C(F)(F)F.O=C(O)C(F)(F)F (centres unmarked) ) is 94.7

# %Inh (compound: `O=C(O)C(F)(F)F.O=c1[nH]ccc2nc(N[C@@H]3CCNC3)nc(Nc3cc(Cl)cc(Cl)c3)c12` ) is 100

# %Inh (compound: `Cc1cc(-c2c(-c3ccc(F)cc3)ncn2CCCN2CCOCC2)nc(N)n1` ) is 0

# %Inh (compound: Cl.Cl.NC(CNC(=O)c1cc(Br)c(-c2ccnc3[nH]ccc23)s1)c1ccccc1 (centres unmarked) ) is 84

====

System: TYRO3
Assay Setup: concentration: 1 μM, replicates: in singlicate; n = 1
Metric Name: %Inh (%)
Dear colleague, please return just the value in %, with no unit written.

# annotated cases, reported %Inh shown
Mol	Recorded Result
Cl.O=C(Nc1ccc(Oc2ccc3[nH]c(NC(=O)c4ccco4)nc3c2)cc1)Nc1cc(C(F)(F)F)ccc1F	42
O=C(Nc1n[nH]c2cc(-c3cccs3)ccc12)C1CC1	0
COC(=O)Nc1nc2ccc(Oc3ccc(NC(=O)Nc4cc(C(F)(F)F)ccc4F)cc3)cc2[nH]1.Cl	66
CC(C)c1nc(-c2cccc(NS(=O)(=O)c3c(F)cccc3F)c2)c(-c2ccnc(Nc3ccc(N4CCOCC4)nc3)n2)s1.Cl	72
CCn1c(-c2nonc2N)nc2c(-c3ccccc3)ncc(OCCCN)c21.O=C(O)C(F)(F)F.O=C(O)C(F)(F)F	0

# %Inh (molecule: `Nc1ncc(-c2cn[nH]c2)c2scc(-c3ccc4c(c3)CCN4C(=O)Cc3ccccc3)c12` ) is 6

# %Inh (molecule: `CC(=O)Nc1cn2nc(Oc3cccc(NC(=O)c4cccc(C(F)(F)F)c4)c3)ccc2n1` ) is 33

# %Inh (molecule: `COc1cccc2c(-c3ccncc3)c(-c3ccc(F)cc3)nn12` ) is 0

====

Tested on: TAK1
Construct: gene MAP3K7
Assay Setup: concentration: 1 μM, replicates: in singlicate; n = 1
Reported %Inh by item:
Dear colleague, please return just the value in %, with no unit written.

# annotated cases, reported %Inh shown
Compound	%Inh / %
COc1cccc(-c2nc(-c3ccccc3)[nH]c2-c2ccncc2)c1 [SB-610250]	0
CC(C)(C)c1ccc(C(=O)Nc2cn3cc(-n4ccnc4)ccc3n2)cc1	9
Cc1ccccc1CC(=O)N1CCc2cc(-c3cn(C)c4ncnc(N)c34)ccc21 [GSK2603346]	6
COc1cccc(C2=C(Nc3cccc(O)c3)C(=O)NC2=O)c1 [SB-390771]	100
Cc1ccc(C)c(NC(=O)Nc2ccc(C)c(-c3ccc(C(=O)Nc4ccncc4)cc3)c2)c1 [GSK1398473]	0
O=C1NC(=O)C(c2ccccc2Cl)=C1Nc1cccc(Cl)c1 [SB-342409]	0

# %Inh (compound: Fc1cc(Cl)ccc1Nc1ccnc2cc(-c3ccc(CN4CCOCC4)o3)ccc12 [GW560109] ) is 0

====

Reported %Inh by item:
Tested on: MST3
Construct: gene STK24
Assay Setup: concentration: 1 μM, replicates: in singlicate; n = 1

# annotated cases, reported %Inh shown
Molecule	Recorded Result
Cc1cccc(Nc2nc(NCCN)ncc2C(N)=O)c1	23%
COc1cc(Nc2nccc(N3CCC(NC(=O)Nc4ccc5c(c4)OCO5)C3)n2)cc(OC)c1OC (stereo not shown)	0%
Cc1cc(-c2ccnc(Nc3cccc(C#N)c3)n2)cc(C)c1O	6%
COc1cccc(C2=C(Nc3cccc(O)c3)C(=O)NC2=O)c1	0%

# %Inh (molecule: `COc1cccc(-c2nc(-c3ccccc3)[nH]c2-c2ccncc2)c1` ) is 0%

# %Inh (molecule: `CN(c1ccc2c(c1)nc(NCc1ccccc1)n2C)c1ccnc(Nc2ccc(CS(C)(=O)=O)cc2)n1.Cl` ) is 0%

# %Inh (molecule: `Cc1cc(-c2c(-c3ccc(F)cc3)ncn2CCCN2CCOCC2)nc(N)n1` ) is 5%

# %Inh (molecule: `COc1cccc2c(-c3ccncc3)c(-c3ccc(F)cc3)nn12` ) is 0%

# %Inh (molecule: NCCC(NC(=O)c1cc(Br)c(-c2ccnc3[nH]ccc23)s1)c1ccccc1.O=C(O)C(F)(F)F.O=C(O)C(F)(F)F (stereo not shown) ) is 11%

# %Inh (molecule: `COc1ccc(NC(=O)c2ccoc2)cc1-c1ccc(C(=O)NCC2CC2)cc1` ) is 1%
